Values from patent US12011444B2

# assayed.system: EP2 (Homo sapiens (Human), UniProt P43116);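 also: antagonism of PGE2-stimulated cAMP accumulation in SF295 human glioblastoma cells with endogenous EP2, cAMP read by HTRF, expressed relative to DMSO control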
# Sequence (P43116 whole entry): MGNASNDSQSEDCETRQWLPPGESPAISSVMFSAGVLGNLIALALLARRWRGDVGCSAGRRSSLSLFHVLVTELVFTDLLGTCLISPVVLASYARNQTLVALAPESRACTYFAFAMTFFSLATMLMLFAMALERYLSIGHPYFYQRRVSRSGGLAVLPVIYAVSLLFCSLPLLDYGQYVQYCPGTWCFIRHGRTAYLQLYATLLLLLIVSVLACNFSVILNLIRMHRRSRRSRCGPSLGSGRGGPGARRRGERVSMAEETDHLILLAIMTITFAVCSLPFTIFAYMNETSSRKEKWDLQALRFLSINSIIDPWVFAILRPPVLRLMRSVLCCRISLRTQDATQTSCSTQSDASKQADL
quantity.name: IC50
Write down the value, and be sure its unit follows.

Worked set:
COc1cc(F)cc2c1cc(C)n2CCNc1cc(-c2ccc(-c3cc(C)[nH]n3)cc2)ncn1
10 nM
COc1cc(F)cc2c1cc(C)n2CCNc1cc(-c2cc(C(F)(F)F)c(C(=O)O)s2)ncn1
28 nM
COc1cc(F)cc2c1cc(C)n2CCNc1cc(-c2ccc(-c3cnccn3)cc2)ncn1
16 nM

# input Return reported IC50. Input molecule: CCNC(=O)Nc1ccc(-c2cc(NCCn3c(C)cc4c(OC)ccc(Cl)c43)ncn2)cc1OC
# output 56 nM

# input Tell us which IC50 value is on record for Cc1cc(F)cc2c1cc(C)n2CCNc1cc(-c2ccc(C(=O)O)c(CC(C)C)c2)ncn1
# output 34 nM

# input Give the reported value of IC50 for this record: Cc1nc(-c2ccc(-c3cc(NCCn4c(C)cc5c(C)cc(F)cc54)ncn3)cc2)c[nH]1
# output 6 nM

====

The entries below come with measured pIC50 values attached.
# assayed.system: PTGER2 (EP2) (Homo sapiens (Human), UniProt P43116)
# Sequence (P43116 whole entry): as above
# procedure.text: hEP2 b-arrestin assay (PathHunter HEK 293 PTGER2 b-arrestin cells)
# Type: cell-based
# condition: hEP2 b-arrestin assay (values without asterisk)
Keep it numeric: pIC50 is minus log10 of the concentration in mol/L.

CCOc1cc(-c2cc(NCCn3c(C)cc4c(F)ccc(C)c43)ncn2)ccc1C(=O)O [Example 812]
8.70

# input Name the recorded pIC50 of the item CCc1cc(-c2cc(NCCn3c(C#N)cc4c(OC)ccc(F)c43)ncn2)ccc1O [Example 822] in your answer.
# output 8.22

# input Please supply the value of reported pIC50 for the item CCOc1cc(-c2cc(NCCn3c(C#N)cc4c(Cl)cc(Cl)cc43)ncn2)sc1C(=O)O [Example 889]
# output 9.00

# input Write down pIC50 measured for item COc1cc2[nH]ncc2cc1-c1cc(NCCn2c(C#N)cc3c(OC)ccc(F)c32)ncn1 [Example 981]
# output 7.23

# input Answer with the recorded pIC50 for the compound listed here: COc1ccc(F)c2c1cc(C#N)n2CCNc1cc(-c2cnc3c(ccn3C)c2)ncn1 [Example 980]
# output 7.68

# input Provide only the value of recorded pIC50 for CNc1cc(-c2cc(NCCn3c(C)cc4c(C)c(F)cc(F)c43)ncn2)ccc1C(=O)O [Example 1012]
# output 8.30

# input Answer with the recorded pIC50 of COc1ccc(F)c2c1cc(C#N)n2CCNc1cc(-c2c(C)nn(C)c2C)ncn1 [Example 998] only.
# output 7.32

# input Respond only with pIC50 recorded for CCOc1cc(-c2cc(NCCn3c(C#N)cc4c(OC)ccc(F)c43)ncn2)ccc1OCCC(=O)O [Example 927]
# output 7.51

# input Complete the entry with pIC50 for CCOc1cc(-c2cc(NCCn3c(C)cc4c(OC)ccc(F)c43)ncn2)sc1CC(=O)O [Example 847]
# output 7.46

# input Complete the entry with pIC50 for CCCCOc1cc(-c2cc(NCCn3c(C)cc4c(OC)cc(Cl)c(F)c43)ncn2)ccc1C(=O)O [Example 884]
# output 8.00

# input Look up and state reported pIC50 for CCOc1cc(-c2cc(NCCn3c(C#N)cc4c(OC)ccc(F)c43)ncn2)sc1C(=O)OCC(=O)O [Example 1043]
# output 8.30

# input Respond only with pIC50 recorded for COc1ccc(F)c2c1cc(C#N)n2CCNc1cc(-c2cc(C(=O)O)cs2)ncn1 [Example 1008]
# output 6.63

====

# assayed.system: PTRGER4 (EP4) (Homo sapiens (Human), UniProt P35408)
# Sequence (P35408 whole entry, looked up): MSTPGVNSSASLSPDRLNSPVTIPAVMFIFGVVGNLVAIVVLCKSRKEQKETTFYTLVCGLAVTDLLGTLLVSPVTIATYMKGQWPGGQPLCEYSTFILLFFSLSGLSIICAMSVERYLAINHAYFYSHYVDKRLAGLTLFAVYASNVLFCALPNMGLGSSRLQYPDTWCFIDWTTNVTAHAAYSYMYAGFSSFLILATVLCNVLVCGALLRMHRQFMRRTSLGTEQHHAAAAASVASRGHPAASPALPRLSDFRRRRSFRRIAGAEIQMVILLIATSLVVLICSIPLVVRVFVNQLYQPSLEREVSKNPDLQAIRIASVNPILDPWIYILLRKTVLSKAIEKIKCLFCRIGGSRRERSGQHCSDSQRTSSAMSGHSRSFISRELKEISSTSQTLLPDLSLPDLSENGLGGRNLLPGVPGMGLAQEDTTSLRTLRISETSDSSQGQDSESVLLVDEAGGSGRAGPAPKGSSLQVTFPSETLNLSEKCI
# procedure.text: hEP4 b-arrestin assay (PathHunter HEK 293 PTGER4 b-arrestin cells)
# Assay type: cell-based
# condition: antagonistic activity on hEP4; mean where measured multiple times
Form field: pIC50 (one value per entry).
To interpret pIC50, take it as minus log10 of a concentration measured in moles per litre.

Some entries whose results are on file:
Cc1cc(-c2cc(NCCn3c(C)cc4c(C)ccc(F)c43)ncn2)ccc1S(N)(=O)=O
6.54
COc1cccc2c1cc(C)n2CCNc1cc(-c2ccc(CO)c(Cl)c2)ncn1
6.69
CCOc1cc(-c2cc(NCCn3c(C)cc4cc(Cl)cc(Cl)c43)ncn2)ccc1C(=O)O
6.13
Cc1ccc(Cl)c2c1cc(C)n2CCNc1cc(-c2ccc3[nH]c(C(=O)O)cc3c2)ncn1
6.41

# input Consider the molecule CSc1cc(-c2cc(NCCn3c(C)cc4c(Cl)ccc(Cl)c43)ncn2)ccc1C(=O)O . State its measured pIC50.
# output 6.04

# input Give reported pIC50 value for CCCc1cc(-c2cc(NCCn3c(C)cc4cc(C)cc(Cl)c43)ncn2)cc(Cl)c1C(=O)O
# output 6.33

# input Note pIC50 for the molecule shown: Cc1cc2c(Cl)cccc2n1CCNc1cc(-c2ccc(C(=O)O)c(C3CC3)c2)ncn1
# output 6.27

# input Please report pIC50 for the following molecule: CCCc1cc(-c2cc(NCCn3c(C)cc4c(F)ccc(Cl)c43)ncn2)ccc1C(=O)O
# output 6.18

# input Supply measured pIC50 of CCc1cc(-c2cc(NCCn3c(C)cc4c(OC)cccc43)ncn2)cc(Cl)c1C(=O)O in your reply.
# output 6.69

# input Please list pIC50 recorded for the molecule CCc1cc(-c2cc(NCCn3c(C)cc4c5c(cc(Cl)c43)OCO5)ncn2)ccc1C(=O)O
# output 6.02

# input Given the molecule Cc1n[nH]c2cc(-c3cc(NCCn4c(C)cc5c(C)cc(F)cc54)ncn3)ccc12 , write its reported pIC50.
# output 6.23

====

IC50 values for the compounds below.
# assayed.system: PTGER2 (EP2) (Homo sapiens (Human))
# procedure.text: hEP2 b-arrestin assay (PathHunter HEK 293 PTGER2 b-arrestin cells)
# Type: cell-based
# condition: antagonistic activity on hEP2; mean where measured multiple times
Give the value, in units of nM, as a plain number.

Cc1ccc(F)c2c1cc(C)n2CCNc1cc(-c2ccc(-c3c[nH]cn3)cc2)ncn1
45

# input Tell me IC50 reported for Cc1ccc(F)c2c1cc(C)n2CCNc1cc(-c2ccc3ncccc3c2)ncn1
# output 48

# input Give recorded IC50. CCOc1cc(-c2cc(NCCn3c(C)cc4c(Cl)c(F)cc(Cl)c43)ncn2)ccc1C(=O)O
# output 52

# input Give the reported IC50 for this compound. CCc1cc(-c2cc(NCCn3c(C)cc4c(C)cc(F)cc43)ncn2)sc1C(=O)O
# output 24

# input Consider the compound CCC1NC(=O)c2ccc(-c3cc(NCCn4c(C)cc5c(OC)cccc54)ncn3)cc21 (racemic) and give its recorded IC50.
# output 12

====

Reported log10(IC50) values for the following molecules.
# assayed.system: UniProtKB P35408
# procedure.text: hEP4 b-arrestin assay (PathHunter HEK 293 PTGER4 b-arrestin cells)
# Format: cell-based
# condition: antagonistic activity on hEP4; mean where measured multiple times
Lab note - IC50 converted to log10 from values in nM.

Cc1cc(F)cc2c1cc(C)n2CCNc1cc(-c2cc(C(F)(F)F)c(C(=O)O)s2)ncn1 [compound 269]
2.07
CCOc1cc(-c2cc(NCCn3c(C)cc4c(F)c(F)ccc43)ncn2)ccc1C(=O)O [compound 278]
3.00
Cc1ccc(F)c2c1cc(C)n2CCNc1cc(-c2ccc(C(=O)O)c(C3CC3)c2)ncn1 [compound 174]
2.61
COc1ccc(F)c2c1cc(C)n2CCNc1cc(-c2ccc3cc[nH]c3c2)ncn1 [compound 68]
2.59
COc1ccc(F)c2c1cc(C)n2CCNc1cc(-c2ccc(-n3cccn3)cc2)ncn1 [compound 190]
2.29

# input Recall the reported log10(IC50) of CCOc1cc(-c2cc(NCCn3c(C#N)cc4c(OC)cc(F)cc43)ncn2)sc1C(=O)O [compound 391] when tested on UniProtKB P35408.
# output 0.48

# input Lab note: record log10(IC50) of CCc1cc(-c2cc(NCCn3c(C)cc4c(C)cc(F)cc43)ncn2)sc1C(=O)O [compound 104] tested on UniProtKB P35408.
# output 1.64

# input Tell me log10(IC50) of COc1cc(F)cc2c1cc(C)n2CCNc1cc(-c2ccc3c(c2)CC(=O)N3)ncn1 [compound 88] when tested on UniProtKB P35408.
# output 2.27

====

# assayed.system: PTRGER4 (EP4) (Homo sapiens (Human), UniProt P35408)
# procedure.text: hEP4 b-arrestin assay (PathHunter HEK 293 PTGER4 b-arrestin cells)
# Type: cell-based
# condition: hEP4 b-arrestin assay (values without asterisk)
# Procedure: The assay is using the PathHunter™ HEK 293 PTGER2 and PTGER4 b-arrestin cell lines from DiscoverX. The system is based on the Enzyme Fragment Complementation Technology. Two complementing fragments of the b-galactosidase enzyme are expressed within stably transfected cells. […] Twelve μl of reagent are transferred to the assay plate and incubate for 1 hour at room temperature in the dark. Luminescence counts are read on a BMG Fluostar Optima reader according to manufacturer's instructions. […]
quantity.name: pIC50
Expect pIC50 as a plain number equal to -log10 of the molar concentration.

As a guide, the following entries are already answered.
CCOc1cc(-c2cc(NCCn3c(C#N)cc4c(OC)cccc43)ncn2)ccc1NCC(=O)O
8.30
COc1ccc(F)c2c1cc(C#N)n2CCNc1cc(-c2ccc(O)c(Cl)c2)ncn1
8.22
CCCOc1cc(-c2cc(NCCn3c(C#N)cc4c(OC)ccc(F)c43)ncn2)ccc1C(=O)O
7.38

Pending compound:
# input Find pIC50 for CCSc1cc(-c2cc(NCCn3c(C#N)cc4c(OC)cc(F)cc43)ncn2)ccc1C(=O)O on PTRGER4 (EP4) (Homo sapiens (Human), UniProt P35408) and write it down.
# output 7.39
